# measured_on: T1, human PD-1 (form in the assay not stated) (human, UniProt Q15116 25-167, limits assumed)
# T1 construct: Used for the kinetic constants and EC50 values whose assay format is not described
# run_description: PD-1-specific binding at 0 to approximately 350 nM antibody (FIG. 20); format not stated
pEC50: −log10 of the molar value.
Reported pEC50 values are given for each entry in this list.
readout: pEC50

[[record]]
binder = "h1H3 Var 6 (antibody, V domains shown, Humanized variable domains LC1_2 / HC1_3) VH: EVQLVESGGGLVQPGGSLRLSCAASGFTFSDYGMHWVRQAPGKGLEWVAYISSGSYTIYSADSVKGRFTISRDNAKNTLYLQMSSLRAEDTAVYYCARRGYGSFYEYYFDYWGQGTTVTVSS VL: QIVLTQSPATLSLSPGERATLSCSASSSVSYMYWYQQKPGQAPRLLIYLTSNRATGIPARFSGSGSGTDYTLTISSLEPEDFAVYYCQQWSSNPFTFGQGTKLEIK"
recorded_value = 8.52

[[record]]
binder = "h1H3 Var 4 (antibody, V domains shown, Humanized variable domains LC1_2 / HC1_1) VH: EVQLVESGGGLVQPGGSLRLSCAASGFTFSDYGMHWVRQAPGKGLEWVSYISSGSSTIYYADSVKGRFTISRDNAKNTLYLQMSSLRAEDTAVYYCARRGYGSFYEYYFDYWGQGTTVTVSS VL: QIVLTQSPATLSLSPGERATLSCSASSSVSYMYWYQQKPGQAPRLLIYLTSNRATGIPARFSGSGSGTDYTLTISSLEPEDFAVYYCQQWSSNPFTFGQGTKLEIK"
recorded_value = 8.22

[[record]]
binder = "h1H3 Var 2 (antibody, V domains shown, Humanized variable domains LC1_1 / HC1_2) VH: EVQLVESGGGLVQPGGSLRLSCAASGFTFSDYGMHWVRQAPGKGLEWVAYISSGSYTIYYADSVKGRFTISRDNAKNTLYLQMSSLRAEDTAVYYCARRGYGSFYEYYFDYWGQGTTVTVSS VL: EIVLTQSPATLSLSPGERATLSCRASSSVSYMYWYQQKPGQAPRLLIYLASNRATGIPARFSGSGSGTDYTLTISSLEPEDFAVYYCQQWSSNPFTFGQGTKLEIK"
recorded_value = 8.52

[[record]]
binder = "h1H3 Var 1 (antibody, V domains shown, Humanized variable domains LC1_1 / HC1_1) VH: EVQLVESGGGLVQPGGSLRLSCAASGFTFSDYGMHWVRQAPGKGLEWVSYISSGSSTIYYADSVKGRFTISRDNAKNTLYLQMSSLRAEDTAVYYCARRGYGSFYEYYFDYWGQGTTVTVSS VL: EIVLTQSPATLSLSPGERATLSCRASSSVSYMYWYQQKPGQAPRLLIYLASNRATGIPARFSGSGSGTDYTLTISSLEPEDFAVYYCQQWSSNPFTFGQGTKLEIK"
recorded_value = 8.22

[[record]]
binder = "h1H3 Var 5 (antibody, V domains shown, Humanized variable domains LC1_2 / HC1_2) VH: EVQLVESGGGLVQPGGSLRLSCAASGFTFSDYGMHWVRQAPGKGLEWVAYISSGSYTIYYADSVKGRFTISRDNAKNTLYLQMSSLRAEDTAVYYCARRGYGSFYEYYFDYWGQGTTVTVSS VL: QIVLTQSPATLSLSPGERATLSCSASSSVSYMYWYQQKPGQAPRLLIYLTSNRATGIPARFSGSGSGTDYTLTISSLEPEDFAVYYCQQWSSNPFTFGQGTKLEIK"
recorded_value = 8.52

[[record]]
binder = "h1H3 Var 3 (antibody, V domains shown, Humanized variable domains LC1_1 / HC1_3) VH: EVQLVESGGGLVQPGGSLRLSCAASGFTFSDYGMHWVRQAPGKGLEWVAYISSGSYTIYSADSVKGRFTISRDNAKNTLYLQMSSLRAEDTAVYYCARRGYGSFYEYYFDYWGQGTTVTVSS VL: EIVLTQSPATLSLSPGERATLSCRASSSVSYMYWYQQKPGQAPRLLIYLASNRATGIPARFSGSGSGTDYTLTISSLEPEDFAVYYCQQWSSNPFTFGQGTKLEIK"
recorded_value = 8.52

[[record]]
binder = "1H3 Construct (chimeric murine anti-human PD-1 Fab regions of antibody 1H3 and a human IgG1 Fc region) (antibody, V domains shown, also called 1H3 anti-human PD-1 chimeric antibody; chimeric 1H3) VH: EVQLVESGGGLVKPGGSLKLSCAASGFTFSDYGMHWVRQAPEKGLEWVAYISSGSYTIYYTDTVKGRFTISRDNAKNTLFLQMTSLRSEDTAMYYCARRGYGSFYEYYFDYWGQGTTLTVSS VL: QIVLTQSPALMSASPGEKVTMTCSASSSVSYMYWYQQKPRSSPKPWIYLTSNLASGVPARFSGSGSGTSYSLTISSMEAEDAATYYCQQWSSNPFTFGSGTKLEIK"
recorded_value = 8.52

